target: Tyrosine-protein phosphatase non-receptor type 7 (Homo sapiens); assay: HePTP tyrosine phosphatase activity blockers – biochemical, absorbance, leukemia target, primary screen (AID 521); settings: recombinant HePTP phosphatase activity, OD absorbance; at 20 µM; stronger effect = higher value;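 note: plate controls were vehicle for no effect and reference inhibitor for full effect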
Out of some 110,000 compounds screened, about 730 (0.66%) were called active. The full list was thinned out, with actives kept by preference.
Value type: inhibition (%)
Entry rule: numbers only, all in %.

CCOc1ccccc1NC(=O)c1c(NC(=O)c2ccco2)sc2c1CCC(C)C2 (centres undefined) : 4.6
CCOc1cc(/C=N/NC(=O)CC2C(=O)NN=C2C)ccc1O (centres undefined) : -5.5
CN1CCN(CCCCOc2cccc3ccccc23)CC1 : 3.9
O=C(NC(=S)Nc1ccc(-c2nc3cc(Cl)ccc3o2)cc1)c1ccco1 : 4.7

Consider Cc1oc2ccccc2c1/C=N/n1cnc2sc3c(c2c1=O)CCCC3 . Its measured inhibition is -2.6

Consider Cc1ccccc1NC(=O)c1c(NC(=O)C(C)(C)C)sc2c1CCC(C)C2 (centres undefined) . Its measured inhibition is 3.9

Consider CSc1nc(N)c(C#N)c(-c2ccccc2Cl)c1C#N . Its measured inhibition is -5.7

Consider CC(C)=CC1C(C(=O)Nc2ccc(C)cn2)C1(C)C (centres undefined) . Its measured inhibition is -10.2

Consider CC(C)(O)C#Cc1ccc(C2C3=C(CC(C)(C)CC3=O)OC3=C2C(=O)CC(C)(C)C3)cc1 . Its measured inhibition is 1.5

Consider CSc1ccc(-c2c(C#N)c(N)nc3c2c(C)nn3-c2ccccc2)cc1 . Its measured inhibition is 2.8

Consider CCc1ccc(-n2c(C)cc(/C=C3/SC(=S)NC3=O)c2C)cc1 . Its measured inhibition is 7.1

Consider COc1ccc(-c2nc(-c3ccccc3)no2)c(OC)c1 . Its measured inhibition is 16.7

Consider CCc1ccc(N2C(=O)NC(=O)/C(=C\c3cc(Cl)c(O)c(Cl)c3)C2=O)cc1 . Its measured inhibition is 2.7

Consider COc1ccccc1NCN1C(=O)S/C(=C/c2ccccc2F)C1=O . Its measured inhibition is -9.9

* * *

target: Tyrosine-protein phosphatase non-receptor type 7 (Homo sapiens); assay: HePTP tyrosine phosphatase activity blockers – biochemical, absorbance, leukemia target, primary screen (AID 521); conditions: recombinant HePTP phosphatase activity, OD absorbance; at 20 µM;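 note: plate controls were vehicle for no effect and reference inhibitor for full effect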
Screen size: about 110,000 compounds; about 730 (0.66%) were called active. Rule as the data show it: active = inhibition above about 50%; inconclusive = no clear call, values can overlap the other calls; inactive = below that. This is one part of a sample in which actives are shown more often than they occur.
Your reply should match one of these outcome classes. active, inactive

Cc1ccc(NC(=O)c2cnn(-c3ccccc3)c2NC(=O)c2ccccc2Cl)cc1C : active
O=C(O)c1cccc(N2C(=O)c3ccc4c5c(ccc(c35)C2=O)CC4)c1 : active
COc1ccc(NC(=O)c2cccc(N3C(=O)c4ccc(C(=O)Nc5ccc(OC)cc5)cc4C3=O)c2)cc1 : inactive
Cc1ccc(C)c(-c2cc(C(=O)NN)c3ccccc3n2)c1 : inactive
COc1ccc2ccccc2c1/C=N/NC(=O)c1cc(C)[nH]n1 : inactive
Cc1cc(NCCN2CCCCCC2)n2c(nc3ccccc32)c1C#N : inactive

Q: Returns: the outcome recorded for O=C1C2C3CC4C2C(=O)C2(c5ccccc5)C1C3C42 (centres undefined) in this assay.
Ans: inactive

Q: Returns: the outcome recorded for O=C(Nc1cccnc1)c1cnn2c1NC(c1ccco1)CC2C(F)(F)F (centres undefined) in this assay.
Ans: inactive

Q: Returns: the outcome recorded for Nn1c(NCc2ccccc2)nc2ccccc21 in this assay.
Ans: inactive

Q: Returns: the outcome recorded for O=C1C=CC2=C3Oc4c(ccc5cc(O)ccc45)C(c4ccccc4C(=O)O)C3C=CC2=C1 (centres undefined) in this assay.
Ans: active

Q: Returns: the outcome recorded for CCOC(=O)c1c(N)sc(C)c1CC in this assay.
Ans: inactive

Q: Returns: the outcome recorded for COc1ccc2nc(C)c(CCC(C)=O)c(Cl)c2c1 in this assay.
Ans: inactive
